Parameter: Ki. Scope: all listed entries.
# assay.target: PLK1 (Homo sapiens, UniProt P53350)
# Sequence (P53350 whole entry): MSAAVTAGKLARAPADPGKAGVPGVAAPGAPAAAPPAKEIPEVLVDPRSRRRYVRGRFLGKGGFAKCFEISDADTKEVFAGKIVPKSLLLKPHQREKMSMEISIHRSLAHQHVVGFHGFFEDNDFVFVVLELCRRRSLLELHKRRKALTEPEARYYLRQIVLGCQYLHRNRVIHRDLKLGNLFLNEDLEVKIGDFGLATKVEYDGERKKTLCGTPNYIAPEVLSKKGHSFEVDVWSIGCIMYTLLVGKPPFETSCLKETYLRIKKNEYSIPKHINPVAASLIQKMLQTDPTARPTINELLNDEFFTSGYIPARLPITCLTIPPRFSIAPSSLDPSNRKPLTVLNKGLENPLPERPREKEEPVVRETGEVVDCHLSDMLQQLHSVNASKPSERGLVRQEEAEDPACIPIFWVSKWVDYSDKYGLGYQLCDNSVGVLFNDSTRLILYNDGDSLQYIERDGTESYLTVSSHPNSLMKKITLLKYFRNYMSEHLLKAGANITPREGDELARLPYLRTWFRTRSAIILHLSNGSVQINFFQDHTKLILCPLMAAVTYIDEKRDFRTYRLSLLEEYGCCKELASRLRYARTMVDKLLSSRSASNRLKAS

Ki for CC(Nc1ncc(C#N)c(-c2c[nH]c3ncc(C(F)(F)F)cc23)n1)C1CN(C(=O)[C@@H](C)O)C1 (some centres unmarked) is < 3 nM

Record summary for N#Cc1cnc(NCc2ccncc2)nc1-c1c[nH]c2ncc(C(F)(F)F)cc12 : reported Ki = > 40 nM

Data point: N#Cc1cnc(NC(CO)C2CCOC2)nc1-c1c[nH]c2ncc(C(F)(F)F)cc12 (centres unmarked) ; Ki = > 40 nM

GET /value?item= COCC(C)Nc1ncc(C#N)c(-c2c[nH]c3ncc(C(F)(F)F)cc23)n1 (centres unmarked) &field=Ki returns 3 to 40 nM

Entry C[C@@H](Nc1ncc(C#N)c(-c2c[nH]c3ncc(C(F)(F)F)cc23)n1)c1ccc(N(C)CCCN(C)C)nc1 ; Ki = 3 to 40 nM

Continuing:
Input CCS(=O)(=O)N1CCC(C(C)Nc2ncc(C#N)c(-c3c[nH]c4ncc(C(F)(F)F)cc34)n2)CC1 (centres unmarked) . Output Ki: < 3 nM

---

# assay.target: PLK1 (Homo sapiens, UniProt P53350)
# assay: PLK1 Inhibition Assay I (radioactive-phosphate incorporation)
# Assay type: biochemical
# condition.label: Ki(app); PLK1 Inhibition Assay I or II (table does not say which)
measurement.kind: Ki

Ki measured on CC(Nc1ncc(C#N)c(-c2c[nH]c3ncc(C(F)(F)F)cc23)n1)c1ccc(N2CCN(C)CC2)cc1 (centres unmarked) [Compound I-102] = < 0.003 µM

So, N#Cc1cnc(Sc2cccc(Cl)c2)nc1-c1c[nH]c2ncc(C(F)(F)F)cc12 [II-6] ? Its Ki was > 0.04 µM

Entry CC(Nc1ncc(C#N)c(-c2c[nH]c3ncc(C(F)(F)F)cc23)n1)c1ccc(C2(O)CCN(C)CC2)nc1 (centres unmarked) [Compound I-266] ; Ki = < 0.003 µM

Lab note: measured Ki of N#Cc1cnc(NCc2ccc(-n3cncn3)cc2)nc1-c1c[nH]c2ncc(C(F)(F)F)cc12 [Compound I-55] was 0.003 to 0.04 µM

With those in mind, consider the next molecule.
Input CC(C)(Nc1ncc(C#N)c(-c2c[nH]c3ncc(Cl)cc23)n1)C(=O)NCCC(F)(F)F . Output Ki: > 0.04 µM
